Biological target: human B1R receptor (CHO K1 cells stably transfected with the human B1R gene) (Homo sapiens)
Construct: expressed in transfected cells; host or cells: CHO K1 cells (Chinese hamster ovary), stably transfected
Sequence (P46663 whole entry): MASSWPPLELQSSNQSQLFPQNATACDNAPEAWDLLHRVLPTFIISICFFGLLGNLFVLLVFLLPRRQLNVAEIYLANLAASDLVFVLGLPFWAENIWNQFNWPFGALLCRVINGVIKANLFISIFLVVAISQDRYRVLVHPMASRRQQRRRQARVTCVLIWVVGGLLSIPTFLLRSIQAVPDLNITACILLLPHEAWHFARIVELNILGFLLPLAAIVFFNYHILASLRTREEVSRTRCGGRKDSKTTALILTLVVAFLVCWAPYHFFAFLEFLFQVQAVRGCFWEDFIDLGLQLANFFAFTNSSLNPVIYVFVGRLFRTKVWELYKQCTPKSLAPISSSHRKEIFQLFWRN
Experiment: Functional study on the bradykinin receptor 1 (B1R), Ca2+ fluorescence (Fluo-4) FLIPR/Novostar assay, hB1R cells
Type: cell-based
Conditions: CHO-K1, read-out: % inhibition (human B1R) at 10 μM
Text: The agonistic or antagonistic action of substances can be quantified on the bradykinin receptor 1 (B1R) of the species human and rat using ectopically expressing cell lines (CHO K1 cells) and with the aid of a Ca^2+-sensitive dye (Fluo-4) using a fluorescent imaging plate reader (FLIPR). […] The agonistic or antagonistic action of substances can be determined on the bradykinin receptor 1 (B1R) of the species human and rat using the following assay. […]
measured.endpoint: inhibition at 10 µM

Examples from the recorded data:
compound=CN(C(=O)c1ccc2c(c1)[C@H](NC(=O)c1cccc(F)c1Cl)CC2)C1CCN(c2ccncn2)CC1 experimental_value=100%
compound=Cc1cc(N2CCC(N(C)C(=O)c3ccc4c(c3)[C@H](NS(=O)(=O)CC(C)C)CC4)CC2)nc(C)n1 experimental_value=100%
compound=Cc1cc(N2CCC(N(C)C(=O)c3ccc4c(c3)[C@H](NC(=O)CC(C)C)CC4)CC2)nc(C)n1 experimental_value=100%
compound="CN(C(=O)c1ccc2c(c1)[C@H](NC(=O)c1ccccc1Cl)CC2)C1CCCN(c2ccncc2)C1 (stereo partly shown)" experimental_value=13%
compound=CN(C(=O)c1ccc2c(c1)[C@H](N(C)C(=O)c1ccccc1Cl)CC2)C1CCN(c2ccncc2)CC1 experimental_value=100%

Exercise: What inhibition at 10 µM value was documented for this compound, CN(C(=O)c1ccc2c(c1)[C@H](NC(=O)c1cccc(C(F)(F)F)c1Cl)CC2)C1CCN(c2ccncc2)CC1 ?
Key: 100%

Exercise: What do you get for Cc1cncc(N2CCC(N(C)C(=O)c3ccc4c(c3)[C@H](NC(=O)c3ccccc3Cl)CC4)CC2)n1 ?
Key: 77%

###

Target: B1R receptor of the rat (CHO K1 cells stably transfected with the B1R gene of the rat) (Rattus norvegicus)
Construct: expressed in transfected cells; host or cells: CHO K1 cells (Chinese hamster ovary), stably transfected
Sequence (P97583 1-337): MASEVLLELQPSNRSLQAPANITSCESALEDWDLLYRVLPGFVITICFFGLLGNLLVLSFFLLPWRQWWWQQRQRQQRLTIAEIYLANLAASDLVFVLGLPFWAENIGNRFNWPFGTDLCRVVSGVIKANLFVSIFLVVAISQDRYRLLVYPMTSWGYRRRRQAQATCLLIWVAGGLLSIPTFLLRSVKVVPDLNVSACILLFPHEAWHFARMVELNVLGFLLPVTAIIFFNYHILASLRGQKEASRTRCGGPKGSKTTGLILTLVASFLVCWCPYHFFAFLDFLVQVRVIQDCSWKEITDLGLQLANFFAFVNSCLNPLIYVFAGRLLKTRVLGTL
Assay: Functional study on the bradykinin receptor 1 (B1R), Ca2+ fluorescence (Fluo-4) FLIPR/Novostar assay, rB1R cells
Assay type: cell-based
Settings: CHO-K1, 10 μM, read-out: % Inhibition (r-B1R) at 10 μM
measured.endpoint: inhibition at 10 µM (%)
Numeric answer only, unit % assumed.

Examples from the recorded data:
compound="CN(C(=O)NC1CCCc2ccc(C(=O)N(C)C3CCN(c4ccncc4)CC3)cc21)c1ccccc1Cl (stereo not shown) [CC_H-268]" measured_endpoint="inhibition at 10 µM" experimental_value=110
compound="CN(C(=O)c1ccc2c(c1)C(NC(=O)c1cc(F)ccc1Cl)CCC2)C1CCN(c2ccncc2)CC1 (stereo not shown) [CC_H-246]" measured_endpoint="inhibition at 10 µM" experimental_value=112
compound="CN(C(=O)c1ccc2c(c1)C(N(C)C(=O)CC(C)(C)C)CC2)C1CCN(c2ccncc2)CC1 (stereo not shown) [CC_H-213]" measured_endpoint="inhibition at 10 µM" experimental_value=110

Now consider a different compound.
Exercise: What inhibition at 10 µM value was documented for this compound, Cc1cc(N2CCC(N(C)C(=O)c3ccc4c(c3)C(NS(=O)(=O)CCc3ccccc3Cl)CC4)CC2)cc(C)n1 (stereo not shown) [CC_H-324] ?
Key: 108

Origin of values: patent US8680159B2
